The origin of these recorded values is ChEMBL document CHEMBL1151276.

- Test system: Candida maltosa
- protocolSummary: Antimicrobial activity against Candida maltosa SBUG 700 at 200 ug/disk by agar diffusion method
- Format: functional, organism-based
Active and inactive are the calls of the source. No cut-off for these calls is given here.
measure: Activity

Completed entries (count: 5):
CC(C)[C@@H](C)/C=C/[C@@H](C)[C@H]1CC[C@H]2C3=CC[C@H]4C[C@@H](O)CC[C@]4(C)[C@H]3CC[C@]12C | inactive
C/C(C=O)=C\CC[C@@H](C)[C@H]1CC[C@@]2(C)C3=C(CC[C@]12C)[C@@]1(C)CCC(=O)C(C)(C)[C@@H]1CC3=O | inactive
C/C(=C\CC[C@@H](C)[C@H]1CC[C@@]2(C)C3=C(CC[C@]12C)[C@@]1(C)CCC(=O)C(C)(C)[C@@H]1CC3=O)CO | inactive
CC(C)[C@@H](C)/C=C/[C@@H](C)[C@H]1CC[C@H]2C3=CCC4CC(=O)CC[C@]4(C)[C@H]3CC[C@]12C (stereo partly specified) | inactive
CC(CC(=O)C[C@@](C)(O)C1=C[C@H](O)[C@]2(C)[C@]1(C)C(=O)C=C1[C@@]3(C)CCC(=O)C(C)(C)[C@@H]3C[C@H]3O[C@@]132)C(=O)O (stereo partly specified) | inactive

Okay, next one:
Input: Name the recorded Activity for `C/C(=C\CC[C@@H](C)[C@H]1CC[C@@]2(C)C3=CC[C@H]4C(C)(C)C(=O)CC[C@]4(C)C3=CC[C@]12C)CO` .
Output: inactive
